- systemUnderTest: T1, FZD7 CRD (Homo sapiens, UniProt O75084)
- T1 construct: D45-S169; GPI anchor signal (C); expressed in transfected cells; host or cells: CHO cells, lentiviral pLenti-puro
- protocolSummary: Immunofluorescence of anti-FZD5 Fab binding to CHO cells overexpressing Frizzled CRD
- Set-up: key: −: no binding; +: very weak binder; ++: weak binder; +++: good binder; ++++: very good binder
testReadout: Immunofluorescence binding, Frizzled CRD overexpressed on CHO cells: FZD7

Please review the following examples before continuing.
molecule | val
Fab-2930: anti-FZD5 Fab with antibody variable region Fv-2930; CDR SEQ ID NOs: 35, 36, 69, 107, 145, 153 (antibody, V domains shown) VH: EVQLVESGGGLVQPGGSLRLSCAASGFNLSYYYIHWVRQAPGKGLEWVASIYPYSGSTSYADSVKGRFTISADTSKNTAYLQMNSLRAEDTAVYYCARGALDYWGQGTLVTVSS VL: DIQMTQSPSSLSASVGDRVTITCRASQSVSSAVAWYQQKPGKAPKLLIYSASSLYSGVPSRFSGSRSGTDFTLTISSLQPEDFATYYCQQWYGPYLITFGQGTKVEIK | +
Fab-2919: anti-FZD5 Fab with antibody variable region Fv-2919; CDR SEQ ID NOs: 35, 36, 58, 97, 134, 155 (antibody, V domains shown) VH: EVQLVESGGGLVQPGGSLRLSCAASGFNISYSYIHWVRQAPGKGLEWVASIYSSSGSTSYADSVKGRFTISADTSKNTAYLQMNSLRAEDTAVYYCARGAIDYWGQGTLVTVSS VL: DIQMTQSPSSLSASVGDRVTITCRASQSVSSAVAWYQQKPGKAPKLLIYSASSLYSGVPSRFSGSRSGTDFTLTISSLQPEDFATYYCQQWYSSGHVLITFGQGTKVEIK | −
Fab-2927: anti-FZD5 Fab with antibody variable region Fv-2927; CDR SEQ ID NOs: 35, 36, 66, 104, 142, 174 (antibody, V domains shown) VH: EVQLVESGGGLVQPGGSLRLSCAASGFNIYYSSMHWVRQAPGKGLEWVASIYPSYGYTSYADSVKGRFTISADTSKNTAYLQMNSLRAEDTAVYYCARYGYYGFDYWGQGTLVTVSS VL: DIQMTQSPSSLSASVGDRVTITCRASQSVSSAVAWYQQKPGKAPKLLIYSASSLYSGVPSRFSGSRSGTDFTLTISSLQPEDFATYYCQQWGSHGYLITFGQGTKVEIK | ++++
Fab-2910: anti-FZD5 Fab with antibody variable region Fv-2910; CDR SEQ ID NOs: 35, 36, 49, 88, 125, 162 (antibody, V domains shown) VH: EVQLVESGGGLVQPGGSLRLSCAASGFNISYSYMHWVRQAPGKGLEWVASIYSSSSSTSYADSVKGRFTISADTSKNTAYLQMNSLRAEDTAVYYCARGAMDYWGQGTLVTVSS VL: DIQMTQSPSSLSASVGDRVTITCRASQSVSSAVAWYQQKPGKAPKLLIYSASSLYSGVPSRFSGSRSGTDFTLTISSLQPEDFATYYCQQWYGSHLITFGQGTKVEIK | +
Fab-2924: anti-FZD5 Fab with antibody variable region Fv-2924; CDR SEQ ID NOs: 35, 36, 63, 101, 139, 153 (antibody, V domains shown) VH: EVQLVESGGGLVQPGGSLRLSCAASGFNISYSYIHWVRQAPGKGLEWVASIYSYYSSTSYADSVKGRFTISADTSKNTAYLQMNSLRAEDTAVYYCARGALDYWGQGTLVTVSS VL: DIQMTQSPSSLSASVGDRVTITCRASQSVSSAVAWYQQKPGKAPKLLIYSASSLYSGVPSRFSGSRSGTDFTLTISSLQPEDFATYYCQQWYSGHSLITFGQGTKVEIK | −
Fab-2915: anti-FZD5 Fab with antibody variable region Fv-2915; CDR SEQ ID NOs: 35, 36, 54, 93, 130, 166 (antibody, V domains shown) VH: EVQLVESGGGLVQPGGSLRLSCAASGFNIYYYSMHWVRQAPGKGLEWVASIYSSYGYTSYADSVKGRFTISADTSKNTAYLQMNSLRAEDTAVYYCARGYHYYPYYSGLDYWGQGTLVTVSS VL: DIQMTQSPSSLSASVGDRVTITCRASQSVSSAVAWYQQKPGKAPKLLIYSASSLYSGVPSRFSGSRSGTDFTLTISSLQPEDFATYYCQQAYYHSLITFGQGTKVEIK | ++++
Fab-2902: anti-FZD5 Fab with antibody variable region Fv-2902; CDR SEQ ID NOs: 35, 36, 41, 80, 117, 153 (antibody, V domains shown) VH: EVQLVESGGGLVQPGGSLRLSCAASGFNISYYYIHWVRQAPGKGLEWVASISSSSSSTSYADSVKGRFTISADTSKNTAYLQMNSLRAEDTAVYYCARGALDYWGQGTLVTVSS VL: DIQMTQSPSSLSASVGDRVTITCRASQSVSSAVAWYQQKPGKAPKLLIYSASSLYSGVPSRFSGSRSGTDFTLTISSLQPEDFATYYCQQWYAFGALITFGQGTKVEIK | +

Please find the next molecule below.
Recorded result, Fab-2928: anti-FZD5 Fab with antibody variable region Fv-2928; CDR SEQ ID NOs: 35, 36, 67, 105, 143, 175 (antibody, V domains shown) VH: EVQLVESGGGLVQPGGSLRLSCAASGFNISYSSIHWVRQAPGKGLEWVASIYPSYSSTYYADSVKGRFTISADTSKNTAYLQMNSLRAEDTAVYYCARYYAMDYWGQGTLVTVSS VL: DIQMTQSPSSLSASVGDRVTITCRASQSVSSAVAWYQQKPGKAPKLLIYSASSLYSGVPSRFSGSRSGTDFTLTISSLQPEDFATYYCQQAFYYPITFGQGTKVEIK , Immunofluorescence binding, Frizzled CRD overexpressed on CHO cells: FZD7: −
